Entries and their measured Tmax follow.
- Experimental protocol: Tmax in CD1 mouse at 5 mg/kg, sc measured after 24 hrs by LC-MS/MS analysis
- Type: ADME, organism-based
- Run conditions: in vivo
Number only, in min; omit the unit.

>>> print(df.to_string())
                               smiles_entry  readout_kind  obs_value
0  CC(C)[C@H](NC(=O)c1ccc2ccccc2n1)C(=O)N[C@@H](Cc1ccccc1)C(=O)N[C@H](C=O)C[C@@H]1CCNC1=O          Tmax         15

Consider the additional compound presented here.
Ask | Answer with the recorded Tmax for the compound listed here: O=C[C@H](C[C@@H]1CCNC1=O)NC(=O)[C@H](Cc1ccccc1)NC(=O)c1cc2ccccc2[nH]1
Reply | 34.8

====

Entries and their measured CC50 at 96 h follow.
- Experimental protocol: Cytotoxicity against human RD cells assessed as reduction in cell viability measured after 4 days by MTS/PMS assay
- Type: toxicity, cell-based
- Run conditions: time 4 day

Some molecules with recorded CC50 at 96 h:
>>> print(df.to_string())
                               smiles_entry  readout_kind  obs_value
0  O=C[C@H](C[C@@H]1CCNC1=O)NC(=O)[C@H](Cc1ccccc1)NC(=O)c1cc2ccccc2o1  CC50 at 96 h   > 100 µM
1  CC(C)[C@H](NC(=O)c1cc2ccccc2[nH]1)C(=O)N[C@@H](Cc1ccccc1)C(=O)N[C@H](C=O)C[C@@H]1CCNC1=O  CC50 at 96 h    72.5 µM
2  O=C[C@H](C[C@@H]1CCNC1=O)NC(=O)[C@H](Cc1ccccc1)NC(=O)c1ccc2occc2c1  CC50 at 96 h   > 100 µM

Ask | Answer with the recorded CC50 at 96 h for the molecule listed here: O=C[C@H](C[C@@H]1CCNC1=O)NC(=O)[C@H](Cc1ccccc1)NC(=O)c1cccc2c1OCCO2
Reply | > 100 µM

Ask | Answer with the recorded CC50 at 96 h for the molecule listed here: O=C[C@H](C[C@@H]1CCNC1=O)NC(=O)[C@H](Cc1ccccc1)NC(=O)c1ccc2ccc(Br)cc2n1
Reply | 46.2 µM

Ask | Answer with the recorded CC50 at 96 h for the molecule listed here: CC(C)[C@H](NC(=O)c1ccc2c(c1)OCCO2)C(=O)N[C@@H](Cc1ccccc1)C(=O)N[C@H](C=O)C[C@@H]1CCNC1=O
Reply | > 100 µM

====

- Experimental protocol: AUClast in CD1 mouse at 5 mg/kg, iv measured after 24 hrs by LC-MS/MS analysis
- Type: ADME, organism-based
- Design: route intravenous, time 24 hrs, dose 5 mg/kg
- Run conditions: in vivo
Entries and their measured AUC(0-t) at 24 h follow.
Number only, in ng·h/mL; omit the unit.

>>> print(df.to_string())
                               smiles_entry      readout_kind  obs_value
0  O=C[C@H](C[C@@H]1CCNC1=O)NC(=O)[C@H](Cc1ccccc1)NC(=O)c1cc2ccccc2[nH]1  AUC(0-t) at 24 h       1730

Ask | Answer with the recorded AUC(0-t) at 24 h for the compound listed here: CC(C)[C@H](NC(=O)c1ccc2ccccc2n1)C(=O)N[C@@H](Cc1ccccc1)C(=O)N[C@H](C=O)C[C@@H]1CCNC1=O
Reply | 1380

====

- Experimental protocol: Mean residence time in CD1 mouse at 5 mg/kg, iv measured after 24 hrs by LC-MS/MS analysis
- Format: ADME, organism-based
- Run conditions: in vivo
Entries and their measured MRT follow.
# number then unit; no other words

>>> print(df.to_string())
                               smiles_entry  readout_kind  obs_value
0  CC(C)[C@H](NC(=O)c1ccc2ccccc2n1)C(=O)N[C@@H](Cc1ccccc1)C(=O)N[C@H](C=O)C[C@@H]1CCNC1=O           MRT     0.98 h

Consider the additional molecule presented here.
Ask | Answer with the recorded MRT for the molecule listed here: O=C[C@H](C[C@@H]1CCNC1=O)NC(=O)[C@H](Cc1ccccc1)NC(=O)c1cc2ccccc2[nH]1
Reply | 1.42 h

====

- Experimental protocol: Cytotoxicity against human RD cells assessed as reduction in cell viability measured after 4 days by MTS/PMS assay
- Format: toxicity, cell-based
- Run conditions: time 4 day
Entries and their measured CC50 at 96 h follow.

>>> df
                               smiles_entry  readout_kind  obs_value
0  O=C[C@H](C[C@@H]1CCNC1=O)NC(=O)[C@H](Cc1ccccc1)NC(=O)C1=Cc2cc(Cl)ccc2OC1  CC50 at 96 h    16.4 µM
1  O=C[C@H](C[C@@H]1CCNC1=O)NC(=O)[C@H](Cc1ccccc1)NC(=O)c1cc2ccccc2[nH]1  CC50 at 96 h   > 100 µM
2  O=C[C@H](C[C@@H]1CCNC1=O)NC(=O)[C@H](Cc1ccccc1)NC(=O)c1ccc2[nH]ccc2c1  CC50 at 96 h   > 100 µM
3  CC(C)[C@H](NC(=O)c1cc2ccccc2o1)C(=O)N[C@@H](Cc1ccccc1)C(=O)N[C@H](C=O)C[C@@H]1CCNC1=O  CC50 at 96 h   > 100 µM
4  O=C[C@H](C[C@@H]1CCNC1=O)NC(=O)[C@H](Cc1ccccc1)NC(=O)c1cn2cc(Br)ccc2n1  CC50 at 96 h   > 100 µM
5  CC(C)[C@H](NC(=O)c1ccc2ccccc2n1)C(=O)N[C@@H](Cc1ccccc1)C(=O)N[C@H](C=O)C[C@@H]1CCNC1=O  CC50 at 96 h    82.8 µM

Consider the additional compound presented here.
Ask | Answer with the recorded CC50 at 96 h for the compound listed here: Cc1cc(C(=O)N[C@H](C(=O)N[C@@H](Cc2ccccc2)C(=O)N[C@H](C=O)C[C@@H]2CCNC2=O)C(C)C)no1
Reply | > 100 µM

====

Entries and their measured CC50 at 96 h follow.
- Experimental protocol: Cytotoxicity against human RD cells assessed as reduction in cell viability measured after 4 days by MTS/PMS assay
- Type: toxicity, cell-based
- Run conditions: time 4 day

>>> df
                               smiles_entry  readout_kind  obs_value
0  O=C[C@H](C[C@@H]1CCNC1=O)NC(=O)[C@H](Cc1ccccc1)NC(=O)c1cnc2ccccc2n1  CC50 at 96 h   > 100 µM
1  COC(=O)/C=C/[C@H](C[C@@H]1CCNC1=O)NC(=O)[C@H](Cc1ccccc1)NC(=O)/C=C/c1ccccc1  CC50 at 96 h   > 100 µM
2  Cc1cc(C(=O)N[C@@H](Cc2ccccc2)C(=O)N[C@H](C=O)C[C@@H]2CCNC2=O)no1  CC50 at 96 h   > 100 µM

Consider the additional compound presented here.
Ask | Answer with the recorded CC50 at 96 h for the compound listed here: O=C[C@H](C[C@@H]1CCNC1=O)NC(=O)[C@H](Cc1ccccc1)NC(=O)c1ccc2ccccc2n1
Reply | > 100 µM
